TARGET_SYSTEM: wildtype HIV-1 protease (Human immunodeficiency virus type 1 group M subtype B)
Assign pIC50 to each entry below.
Give bare numbers, as −log10 of the molar value.

The examples below pair each entry with its known result.
INSERT INTO assay_data (structure_notation, recorded_value) VALUES
  ('COC(=O)N[C@H](C(=O)Nc1ccccc1CC[C@@H]1CN[C@H](C)[C@@H](CSc2nc(C(F)(F)F)nc3ccccc23)O1)C(c1ccccc1)c1ccccc1', 7.85),
  ('COC(=O)N[C@H](C(=O)Nc1ccccc1CC[C@@H]1CN[C@H](C)[C@@H](C[S@@+]([O-])c2ccc(Cl)cc2)O1)C(c1ccccc1)c1ccccc1', 6.05),
  ('COC(=O)N[C@H](C(=O)Nc1ccccc1CC[C@@H]1CN[C@H](C)[C@@H](CSc2nnc(Cc3csc(C)n3)o2)O1)C(c1ccccc1)c1ccccc1', 8.10),
  ('CC[C@@H](NC(=O)OC[C@H]1NC[C@@H](CCc2c(F)cccc2NC(=O)[C@@H](N)C(c2ccc(F)cc2)c2ccc(F)cc2)O[C@H]1C)c1ccc(F)cc1', 8.36),
  ('COC(=O)N[C@H](C(=O)Nc1ccccc1CC[C@@H]1CN[C@H](c2ncc[nH]2)[C@@H](CSc2nnc(-c3ccncc3)o2)O1)C(c1ccccc1)c1ccccc1', 9.19);

For each of the items listed, what is its pIC50?
1. COC(=O)N[C@H](C(=O)Nc1ccccc1CC[C@@H]1CN[C@H](C)[C@@H](CSc2ccc(Cl)cn2)O1)C(c1ccccc1)c1ccccc1
2. N[C@H](C(=O)Nc1cccc(F)c1CC[C@@H]1CN[C@H](CO)[C@@H](COC(=O)NCC(F)(F)F)O1)C(c1ccc(F)cc1)c1ccc(F)cc1
3. C[C@H]1O[C@H](COc2c(F)cncc2NC(=O)[C@@H](N)C(c2ccc(F)cc2)c2ccc(F)cc2)CN[C@@H]1COC(N)=O

Result string:
1. 8.08
2. 6.89
3. 7.28

Quick batch: pIC50 for everything below.
1. COC(=O)N[C@H](C(=O)Nc1ccccc1CC[C@@H]1CN[C@H](C)[C@@H](CSc2ccc(Cl)cc2)O1)C(c1ccccc1)c1ccccc1
2. COC(=O)N[C@H](C(=O)Nc1ccccc1CC[C@@H]1CN[C@H](C)[C@@H](CSc2nnc(-c3ccncc3)o2)O1)C(c1ccccc1)c1ccccc1

Result string:
1. 7.76
2. 8.30

Quick request: pIC50 for each listed item, please.
1. COC(=O)N[C@H](C(=O)Nc1ccccc1CC[C@@H]1CN[C@H](C)[C@@H](CSc2nncs2)O1)C(c1ccccc1)c1ccccc1
2. COC(=O)N[C@H](C(=O)Nc1ccccc1CC[C@@H]1CN[C@H](C)[C@@H](CSc2nc3ccc(Cl)nc3s2)O1)C(c1ccccc1)c1ccccc1

Result string:
[7.90, 7.35]
